# assay-explanation: Substrate (saturation) kinetics of EVG metabolism in human liver microsomes
# Assay type: in vitro ADME
# experimental-conditions: human, pH 7.4, three values per group used for statistics
measurement-type: Km at 7 min
Provide a numeric answer, followed by its unit.

Ask | Recorded Km at 7 min for COc1cc2c(cc1Cc1cccc(Cl)c1F)c(=O)c(C(=O)O)cn2[C@H](CO)C(C)C , please?
Reply | 68.3 µM

----------
# assay-explanation: Substrate (saturation) kinetics of EVG metabolism in human liver microsomes
# Assay type: in vitro ADME
# experimental-conditions: human, pH 7.4, in the presence of ethanol
measurement-type: Km at 7 min (µM)
Please give a number only; it is taken to be in µM.

Ask | Recorded Km at 7 min for COc1cc2c(cc1Cc1cccc(Cl)c1F)c(=O)c(C(=O)O)cn2[C@H](CO)C(C)C , please?
Reply | 115

----------
# assay-explanation: in vitro
# Assay type: in vitro ADME, human
# experimental-conditions: human, microsomes, pH 7.4, Half-life (minutes)
measurement-type: half-life at 4 μM (min)
Please give a number only; it is taken to be in min.

Ask | Recorded half-life at 4 μM for COc1cc2c(cc1Cc1cccc(Cl)c1F)c(=O)c(C(=O)O)cn2[C@H](CO)C(C)C , please?
Reply | 17

----------
# assay-explanation: in vitro
# Type: in vitro ADME, human
# experimental-conditions: human, microsomes, pH 7.4, Half-life
# Description: The reaction was carried out using human liver microsomes in 0.1 M potassium phosphate buffer at pH 7.4 as described previously. […] The concentrations of all the drugs were quantified using Ab Sciex Analyst® software. Microsomal kinetic data were analyzed using Michaelis-Menten and exponential decay equations. CYP3A4 inhibition data were evaluated by fitting the values to dose-response inhibition and calculated IC50 values were reported. […]
measurement-type: half-life at 4 μM (min)
Please give a number only; it is taken to be in min.

Ask | Recorded half-life at 4 μM for COc1cc2c(cc1Cc1cccc(Cl)c1F)c(=O)c(C(=O)O)cn2[C@H](CO)C(C)C [EVG, Elvitegravir] , please?
Reply | 12.1

Data provenance: paper PMC4752462
